molecular target: Amine oxidase [flavin-containing] B (Homo sapiens); test: Binding affinity to human recombinant MAOB
Sequence (P27338 whole entry): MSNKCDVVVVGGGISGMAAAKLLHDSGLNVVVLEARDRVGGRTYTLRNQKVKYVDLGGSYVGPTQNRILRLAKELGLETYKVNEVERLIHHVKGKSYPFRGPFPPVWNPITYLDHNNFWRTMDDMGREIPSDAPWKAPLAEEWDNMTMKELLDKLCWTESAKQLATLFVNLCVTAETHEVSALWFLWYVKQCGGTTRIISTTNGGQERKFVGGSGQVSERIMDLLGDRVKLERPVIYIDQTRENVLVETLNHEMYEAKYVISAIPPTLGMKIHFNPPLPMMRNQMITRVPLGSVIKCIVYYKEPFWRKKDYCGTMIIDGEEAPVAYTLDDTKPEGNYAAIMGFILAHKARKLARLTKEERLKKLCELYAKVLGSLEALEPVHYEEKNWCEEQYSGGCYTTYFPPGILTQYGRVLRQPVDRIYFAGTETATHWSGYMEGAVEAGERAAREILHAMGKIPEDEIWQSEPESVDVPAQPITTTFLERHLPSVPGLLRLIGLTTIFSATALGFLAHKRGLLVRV
measured.endpoint: Ki (µM)

smiles.input | measured.endpoint | recorded.result
CN(C)c1ccc(/N=C/c2ccccn2)cc1 | Ki | 0.04
c1ccc(NCc2ccccn2)cc1 | Ki | 97

* * *

Quick list: pKi per entry.
Molecular target: Amine oxidase [flavin-containing] A (Homo sapiens, UniProt P21397)
Sequence (P21397 whole entry): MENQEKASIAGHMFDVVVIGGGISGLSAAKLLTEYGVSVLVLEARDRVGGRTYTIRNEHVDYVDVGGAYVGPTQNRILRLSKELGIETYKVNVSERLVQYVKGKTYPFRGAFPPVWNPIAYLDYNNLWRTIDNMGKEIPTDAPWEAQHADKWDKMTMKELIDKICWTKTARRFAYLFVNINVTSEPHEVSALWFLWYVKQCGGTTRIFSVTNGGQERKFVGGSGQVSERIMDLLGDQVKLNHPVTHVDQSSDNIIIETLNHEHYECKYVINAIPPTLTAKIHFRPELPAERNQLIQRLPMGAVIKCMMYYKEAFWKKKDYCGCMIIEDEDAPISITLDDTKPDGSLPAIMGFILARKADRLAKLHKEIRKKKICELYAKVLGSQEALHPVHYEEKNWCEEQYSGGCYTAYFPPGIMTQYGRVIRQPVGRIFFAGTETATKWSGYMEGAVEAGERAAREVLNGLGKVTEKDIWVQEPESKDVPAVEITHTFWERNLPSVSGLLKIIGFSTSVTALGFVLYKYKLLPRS
Assay: Binding affinity to human recombinant MAOA
pKi: −log10 of the molar value.
measured.endpoint: pKi

smiles.input | study.target | recorded.result
CN(C)c1ccc(/N=C/c2ccccn2)cc1 | Amine oxidase [flavin-containing] A (Homo sapiens, UniProt P21397) | 7.00
c1ccc(NCc2ccccn2)cc1 | Amine oxidase [flavin-containing] A (Homo sapiens, UniProt P21397) | 5.24

* * *

Quick list: pIC50 per entry.
target: Amine oxidase [flavin-containing] B (Homo sapiens); assay: Inhibition of human recombinant MAOB assessed as kynuramine conversion to 4-hydroxyquinoline after 20 mins by fluorescence assay
pIC50: −log10 of the molar value.
measured.endpoint: pIC50

smiles.input | recorded.result
c1ccc(NCc2ccccn2)cc1 | 3.74
CN(C)c1ccc(/N=C/c2ccccn2)cc1 | 7.17
